Ref: PubChem BioAssay (EPA / NIEHS)

# method: APR_HepG2_CellCycleArrest_24hr: Apredica 24-hour HepG2 Assay for Cell Cycle Arrest (AID 2282905);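 also: cell cycle arrest scored as ratio of 2N to 4N nuclear DNA content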
# measurementConditions: imaging, actives raise or lower the signal
Calls of active or inactive are those of the source. The calls were made as follows: active = hit-call score of the fitted dose curve at least 0.9, where 1 is the maximum; inactive = score below 0.9.
Labels: 1 = active, 0 = inactive

compoundSmiles: CN(C)C(=O)Cl
assignedCategory: 0
--
compoundSmiles: CCOC(=O)c1ccccc1C(=O)OCC
assignedCategory: 0
--
compoundSmiles: c1cc2c3c(cccc3c1)CC2
assignedCategory: 0
--
compoundSmiles: O=[N+]([O-])c1ccc(Cl)c(Cl)c1
assignedCategory: 0
--
compoundSmiles: CCOP(=S)(OCC)SCSCC
assignedCategory: 1
--
compoundSmiles: Cc1ccc([N+](=O)[O-])cc1C
assignedCategory: 0

---

# method: ATG_CMV_CIS: Attagene CIS-FACTORIAL HepG2 Assay for human CMV (Internal Marker) (AID 2282928);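 also: endpoint acts as a background internal control marker rather than a target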
# measurementConditions: HepG2 CMV promoter reporter, transcription factor profiling; actives raise or lower the signal
Active and inactive are the calls of the source. The calls were made as follows: active = hit-call score of the fitted dose curve at least 0.9, where 1 is the maximum; inactive = score below 0.9.
Labels: TRUE for active, FALSE for inactive

molecule: O=P(Oc1ccccc1)(Oc1ccccc1)Oc1ccccc1
assignedCategory: FALSE
--
molecule: c1cc2c3c(cccc3c1)CC2
assignedCategory: FALSE
--
molecule: CC1=C(C(=O)Nc2ccccc2)S(=O)(=O)CCO1
assignedCategory: TRUE
--
molecule: Cn1[nH]nnc1=S
assignedCategory: FALSE
--
molecule: FC(F)(F)C(F)(C(F)(F)F)C(F)(F)C(F)(F)CC1CO1 (stereo not drawn)
assignedCategory: FALSE
--
molecule: c1ccc(OP(Oc2ccccc2)Oc2ccccc2)cc1
assignedCategory: FALSE
--
molecule: Cc1cc(C)c(C(=O)P(=O)(c2ccccc2)c2ccccc2)c(C)c1
assignedCategory: FALSE
--
molecule: CCCCN(CCCC)SN(C)C(=O)Oc1cccc2c1OC(C)(C)C2
assignedCategory: FALSE
--
molecule: N#Cc1c(-c2ccc(Cl)cc2)[nH]c(C(F)(F)F)c1Br
assignedCategory: TRUE
--
molecule: CCOS(=O)(=O)OCC
assignedCategory: FALSE
--
molecule: Cc1ccc(N)cc1N
assignedCategory: FALSE
--
molecule: CCOP(=S)(OCC)SCSCC
assignedCategory: FALSE
--
molecule: ClC1=C(Cl)C2(Cl)C3C(Cl)C(Cl)CC3C1(Cl)C2(Cl)Cl (stereo not drawn)
assignedCategory: TRUE

---

# method: BSK_KF3CT_SRB: Viability Assessment in the BioMAP Diversity Plus: KF3CT Assay (AID 2283069);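 also: total protein by sulforhodamine B staining as a cytotoxicity measure; read 24 h after compound addition; fitted for both signal gain and loss against DMSO baseline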
# measurementConditions: primary human keratinocytes with fibroblasts
Activity calls are given as the source filed them. Rule for the calls: active = hit-call score of the fitted dose curve at least 0.9, where 1 is the maximum; inactive = score below 0.9.
Labels: active, inactive

molecule: CCOP(=S)(OCC)SCSCC
assignedCategory: inactive
--
molecule: CCCCc1ccccc1
assignedCategory: inactive
--
molecule: O=P(OCC(Br)CBr)(OCC(Br)CBr)OCC(Br)CBr (configuration not stated)
assignedCategory: inactive
--
molecule: O=C(O)C(F)(OC(F)(F)C(F)(F)C(F)(F)F)C(F)(F)F (configuration not stated)
assignedCategory: inactive
--
molecule: COP(=O)(CCC(=O)NCO)OC
assignedCategory: inactive
--
molecule: Cc1ccc2c(c1N)C(=O)c1ccccc1C2=O
assignedCategory: inactive
--
molecule: O=S1(=O)OCC2C(CO1)C1(Cl)C(Cl)=C(Cl)C2(Cl)C1(Cl)Cl (configuration not stated)
assignedCategory: inactive
--
molecule: Nc1ccc([N+](=O)[O-])cc1Cl
assignedCategory: inactive
--
molecule: CCC1(c2ccccc2)C(=O)N=C(O)NC1=O (configuration not stated)
assignedCategory: inactive
--
molecule: Cc1cccc(N)c1
assignedCategory: inactive
--
molecule: CC(Cl)CN(C)C (configuration not stated)
assignedCategory: inactive
--
molecule: CC(O)C(F)(F)C(F)(F)F (configuration not stated)
assignedCategory: inactive
--
molecule: CCCCC(CC)COC(=O)c1c(Br)c(Br)c(Br)c(Br)c1C(=O)OCC(CC)CCCC (configuration not stated)
assignedCategory: inactive
--
molecule: COCCOCCO
assignedCategory: inactive
--
molecule: C=CC(=O)OCC(CC)(COC(=O)C=C)COC(=O)C=C
assignedCategory: active
--
molecule: CCCCC(CC)COP(=O)(Oc1ccccc1)Oc1ccccc1 (configuration not stated)
assignedCategory: active
--
molecule: CC(Cc1ccc(OCC(=O)O)cc1)NCC(O)c1csc(C(F)(F)F)n1 (configuration not stated)
assignedCategory: inactive
